Below: a set of entries, each annotated with reported MIC.
system: Saccharomyces cerevisiae
Property: MIC (µg/mL)

* Cc1oc2c([N+]([O-])=NC#N)cccc2c1C | 100
* N#CN=[N+]([O-])c1cccc2c1OC(CCl)C2 (stereo not drawn) | 100
* Cc1cc2cc([N+]([O-])=NC#N)ccc2o1 | 25
* CC1(C)C=Cc2cc(F)cc([N+]([O-])=NC#N)c2O1 | 50

====

# As: activity against tomato early blight values compiled below
system: Alternaria Solani; test: Direct protectant activity against tomato early blight (As); type: in vivo; set-up: scale not given here; details: foliar spray as under (a), 8 days; activity grade 1 or 2, not defined; further: dose 1000 g/ha
Property: As: activity against tomato early blight

- COC(=O)N=[N+]([O-])c1cc(C)cc2c1OC(C)C2 (stereo not shown): 1
- CCC1Cc2c(C)ccc(N=NC(=O)OC)c2O1 (stereo not shown): 1
- N#CN=[N+]([O-])c1ccc2oc3c(c2c1)CCCC3: 2
- CCc1cc2cccc([N+]([O-])=NC#N)c2o1: 2
